Would you kindly list Vd for each of these compounds?
# MEASUREMENT PROTOCOL: Volume of distribution at steady state in dog at 0.3 mg/kg, iv
# Format: ADME, organism-based, Canis lupus familiaris
# MEASUREMENT CONDITIONS: in vivo, read-out: Vdss
Remember to put the unit after the number in your answer.

Vd for Cc1nc2ccc(F)c(-c3cc4c([nH]3)[C@@H](C)NC4=O)c2nc1NC(C)(C)C is 1.7 L/kg

Vd for C[C@H]1NC(=O)c2cc(-c3cccc4c(=O)n(C)c(NC(C)(C)C)nc34)[nH]c21 is 1 L/kg

Vd for Cc1nc2cccc(-c3cc4c([nH]3)[C@@H](C)NC4=O)c2nc1NC(C)(C)C is 1.7 L/kg
